test system: DU-145 prostate; test: NCI tumour cell line growth inhibition, 48 h
Metric Name: TGI

Sample records with TGI:
>  <Molecule>
CN(N=O)c1ccc(/C=C/c2ccnc3ccccc23)cc1

>  <TGI>
> 100 µM

$$$$
>  <Molecule>
O=C1CC2(CCN(Cc3ccccc3)CC2)C(=O)N1N1CCCCC1

>  <TGI>
> 100 µM

$$$$
>  <Molecule>
CCC(CCCC[C@H]1CC[C@@H]2CC(=O)C[C@H]12)OC (stereo not given in full)

>  <TGI>
> 100 µM

$$$$
>  <Molecule>
CCOC(=O)Nc1cc2c(c(N)n1)N=C(c1ccc(Cl)cc1Cl)CN2

>  <TGI>
13.3 µM

$$$$
>  <Molecule>
C#C[C@]1(O)CC[C@H]2[C@@H]3CCC4=C/C(=N/OC(=O)c5cccc6cc7ccccc7nc56)CC[C@@H]4[C@H]3CC[C@@]21CC

>  <TGI>
> 100 µM

$$$$

TGI in this record for CNC(=O)c1sc(-n2cnc3cc(OC)c(OC)cc32)cc1OCc1ccccc1C(F)(F)F : > 25 µM

TGI in this record for O=[N+]([O-])C(/C=C(\Cl)[N+](=O)[O-])=C(N1CCOCC1)N1CCOCC1 : > 100 µM

TGI in this record for Cc1ccc(C)c(N2CCN(c3ccncc3N)CC2)c1 : 64.8 µM

TGI in this record for CCCNC(=O)c1cc(OC)c(OC)cc1NC(=O)C12CC3CC(CC(C3)C1)C2 : 35.5 µM

TGI in this record for CCOC(=O)c1c(CN2CCCCC2)nc2ccc(Cl)cc2c1-c1ccccc1 : > 100 µM

* * *

tested on: NCI-H226 lung; experiment: NCI tumour cell line growth inhibition, 48 h; in the data active means GI50 below about 0.43 µM; inactive means the rest
The reply should be one of these categories: class 1 (active), class 0 (inactive)

>  <Molecule>
CC(C)(C)n1cc(-c2ccnc(NCCCNS(=O)(=O)c3cccc4ccccc34)c2)c(-c2cccc(O)c2)n1

>  <Target Entity>
NCI-H226 lung

>  <Class Name>
class 0

$$$$
>  <Molecule>
O=C(c1ccccc1)c1nn(-c2cccc(Cl)c2)c2nc3nc(-c4ccccc4)cc(=O)n3nc12

>  <Target Entity>
NCI-H226 lung

>  <Class Name>
class 0

$$$$
>  <Molecule>
C=CC[PH+](c1ccccc1)c1ccccc1.C=CC[PH+](c1ccccc1)c1ccccc1.[Pt+2].[S-]c1nc2ccccc2[nH]1.[S-]c1nc2ccccc2[nH]1

>  <Target Entity>
NCI-H226 lung

>  <Class Name>
class 0

$$$$
>  <Molecule>
O=C(CC1(O)C(=O)Nc2ccc(Cl)cc21)c1ccc(C(=O)NCC2CCC3(CC2)OOC2(CCCCC2)OO3)cc1 (stereo not drawn)

>  <Target Entity>
NCI-H226 lung

>  <Class Name>
class 0

$$$$
>  <Molecule>
N#Cc1cnn(C(=O)c2nn(-c3ccc(Cl)cc3)cc2O)c1N

>  <Target Entity>
NCI-H226 lung

>  <Class Name>
class 1

$$$$
>  <Molecule>
Oc1ccccc1/C=N\NC(=S)Nc1ccc(F)cc1

>  <Target Entity>
NCI-H226 lung

>  <Class Name>
class 0

$$$$
>  <Molecule>
O=C1c2ccc3c4c(ccc(c24)C(=O)N1CCCCO)C(=O)N(CCCCO)C3=O

>  <Target Entity>
NCI-H226 lung

>  <Class Name>
class 0

$$$$
>  <Molecule>
COc1ccc([C@@H]2[C@@H](Cl)C(=O)N2c2cc(OC)c(OC)c(OC)c2)cc1C

>  <Target Entity>
NCI-H226 lung

>  <Class Name>
class 0

$$$$
>  <Molecule>
COc1cccc(/C=C\C(=O)c2ccccc2)c1

>  <Target Entity>
NCI-H226 lung

>  <Class Name>
class 0

$$$$
>  <Molecule>
CC1CCc2c(C(=O)Nc3ncc(Cc4cccc([N+](=O)[O-])c4)s3)csc2C1 (stereo not drawn)

>  <Target Entity>
NCI-H226 lung

>  <Class Name>
class 0

$$$$

[Q] Which outcome did this test record for the molecule O=C(O)CN(CCN(CC(=O)O)CC(=O)O)CC(=O)O.[Cu+2].[Na+] ?
[A] class 0

[Q] Which outcome did this test record for the molecule Nc1nc(SCC#CCCl)c2[nH]cnc2n1 ?
[A] class 0

[Q] Which outcome did this test record for the molecule COc1cc(C(=O)/C=C/c2c[nH]c3ccccc23)cc(OC)c1OC ?
[A] class 1

* * *

test system: 786-0 renal; assay: NCI tumour cell line growth inhibition, 48 h; in the data active = GI50 below about 0.43 µM; inactive = the rest
The reply should be one of these categories: TRUE for active, FALSE for inactive

[Q] Which outcome did this test record for the compound COc1cccc(/C=C\C(=O)c2ccccc2)c1 ?
[A] FALSE

[Q] Which outcome did this test record for the compound CCCCCn1sc(=O)n(Cc2ccc(CNC(=O)C(C)c3ccc(CC(C)C)cc3)cc2)c1=O (centres undefined) ?
[A] FALSE

[Q] Which outcome did this test record for the compound Cc1ccc(C)c(N2CCN(c3ccncc3N)CC2)c1 ?
[A] FALSE

[Q] Which outcome did this test record for the compound COC(=O)c1sc(-n2cnc3cc(OC)c(OC)cc32)cc1OCc1ccccc1C(F)(F)F ?
[A] FALSE

[Q] Which outcome did this test record for the compound CSc1ccc(-c2cn3ccsc3n2)cc1 ?
[A] FALSE

[Q] Which outcome did this test record for the compound COc1ccc([C@@H]2[C@@H](Cl)C(=O)N2c2cc(OC)c(OC)c(OC)c2)cc1C ?
[A] TRUE

[Q] Which outcome did this test record for the compound COc1cc(/C=N/NC(=O)c2cnn3c2NC(c2ccccc2)C3)ccc1OCc1ccccc1 (centres undefined) ?
[A] FALSE

[Q] Which outcome did this test record for the compound O=C(O)CN(CCN(CC(=O)O)CC(=O)O)CC(=O)O.[Cu+2].[Na+] ?
[A] FALSE

[Q] Which outcome did this test record for the compound CC(=O)[CH-]C(=O)c1ccccc1.CC(=O)[CH-]C(=O)c1ccccc1.Cl.[O-]CCc1ccccn1.[O-]CCc1ccccn1.[Ti+4] ?
[A] FALSE

* * *

tested on: MCF7 breast; assay: NCI tumour cell line growth inhibition, 48 h
This section presents molecules with their documented TGI values.
State the answer as a number, implicitly in µM.

Sample records with TGI:
>  <Molecule>
COc1ccc(Cl)cc1NC(=O)O/N=C(\Cl)C(C)C

>  <Target Entity>
MCF7 breast

>  <Unit Abbrev>
µM

>  <TGI>
38.6

$$$$
>  <Molecule>
O=C(NCCN1CCOCC1)c1cc2c(Oc3ccc(NC(=O)C4(C(=O)Nc5ccc(F)cc5)CC4)cc3)ccnc2[nH]1

>  <Target Entity>
MCF7 breast

>  <Unit Abbrev>
µM

>  <TGI>
33.2

$$$$
>  <Molecule>
COc1cc(/C=N/NC(=O)c2cnn3c2NC(c2ccccc2)C3)ccc1OCc1ccccc1 (stereo not given)

>  <Target Entity>
MCF7 breast

>  <Unit Abbrev>
µM

>  <TGI>
14.6

$$$$

We now examine a further molecule.
TGI in this record for Cc1c(CCCl)c(Cl)n2c(nc3ccccc32)c1C#N : 5.28

* * *

test system: SK-OV-3 ovarian; assay: NCI tumour cell line growth inhibition, 48 h
Metric Name: TGI

Sample records with TGI:
>  <Molecule>
CC[C@H](C)[C@H](NC(=O)CN(C)C)C(=O)N(C)[C@H](C[C@@H](OC(C)=O)c1nc(C(=O)NC23C4C5C2C2C3C4C52C(=O)OC)cs1)C(C)C (stereo not given in full)

>  <TGI>
> 33.2 µM

$$$$
>  <Molecule>
O=C(CC1(O)C(=O)Nc2ccccc21)c1cccc(O)c1 (stereo not given)

>  <TGI>
> 100 µM

$$$$
>  <Molecule>
O=C1c2ccccc2-c2cn(Cc3ccccc3)c3cccc(c23)C1c1cccnc1 (stereo not given)

>  <TGI>
> 50 µM

$$$$

TGI in this record for N#Cc1c(N)oc2cc3c(C#N)c(N)oc3cc12 : > 100 µM

TGI in this record for O=C1OCc2nc3c(c(-c4ccccc4C(F)(F)F)c21)C(=O)OC3 : > 100 µM

TGI in this record for CC(=O)CC(O)(C(F)(F)Cl)C(F)(Cl)Cl (stereo not given) : > 10 µM

TGI in this record for CCOC(=O)CN(CC)C(=O)NC12CC3CC(CC(C3)C1)C2 : 513 µM

TGI in this record for CCn1c(=O)c2nc(SC)sc2n(-c2ccccc2)c1=S : > 100 µM

TGI in this record for COc1cc(C2c3cc4c(cc3[C@@H](Nc3ccc(F)cc3)C3COC(=O)[C@H]23)OCO4)cc(OC)c1O (stereo not given in full) : 21 µM

TGI in this record for CC(C)C1OC(=O)C(Cc2ccccc2)N(C)C(=O)C(C(C)C)OC(=O)C(Cc2ccccc2)N(C)C(=O)C(C(C)C)OC(=O)C(Cc2ccccc2)N(C)C1=O (stereo not given) : 2.16 µM

* * *

test system: OVCAR-3 ovarian; assay: NCI tumour cell line growth inhibition, 48 h; in the data active means GI50 below about 0.43 µM; inactive means the rest
The reply should be one of these categories: TRUE (active), FALSE (inactive)

[Q] Which outcome did this test record for the compound COc1cc(/C=N\Nc2ccccc2)ccc1OC(=O)c1ccccc1 ?
[A] FALSE

[Q] Which outcome did this test record for the compound NS(=O)(=O)c1cccc(Nc2cc(-c3ccc(F)cc3)[nH]n2)c1 ?
[A] FALSE

[Q] Which outcome did this test record for the compound Cc1cnc(C(=O)Nc2nc3ccc(S(=O)(=O)Nc4ccc(C(C)(C)C)cc4)cc3[nH]2)cn1 ?
[A] TRUE

[Q] Which outcome did this test record for the compound COc1ccccc1NC(=O)c1sc2ncn(CCOc3ccccc3)c(=O)c2c1C ?
[A] FALSE

[Q] Which outcome did this test record for the compound ClC/C=C/CSc1ncnc2nc[nH]c12 ?
[A] FALSE

[Q] Which outcome did this test record for the compound COC(=O)[C@]12CC[C@@H](C)[C@H](C)[C@@H]1C1=CC[C@@H]3[C@@]4(C)C[C@@H](OC(C)=O)[C@H](OC(C)=O)[C@@](C)(COC(C)=O)[C@@H]4[C@H](O)C[C@@]3(C)[C@]1(C)CC2 ?
[A] FALSE

[Q] Which outcome did this test record for the compound O=C(NCCN1CCOCC1)c1cc2c(Oc3ccc(NC(=O)C4(C(=O)Nc5ccc(F)cc5)CC4)cc3)ccnc2[nH]1 ?
[A] FALSE

// data source = PubChem BioAssay (NCI)
